Each entry below carries its reported half-life at 14.6 µg/mL.
Assay: HPLC stability study in phosphate buffers
Format: physicochemical
Details: phosphate buffer, pH 7.4; read-out: half-life (t½)
Protocol: Analytical high-performance liquid chromatography (HPLC) stability studies were performed using a Symmetry® column (C18, 5 µm, 4.6 × 150 mm), a Waters 2487 Dual Wavelength Absorbance detector, a Waters 1525 binary HPLC pump and a Waters 717 plus Autosampler (Waters Corporation, 34 Maple St, Milford, MA, USA). Samples were detected at wavelength of 254 nm. All samples were analysed using acetonitrile (80%) and water (20%) as the mobile phase over 10 min and a flow rate of 1 mL/min. […]

compound	half-life at 14.6 µg/mL
CCC1C(=O)N(c2cc(OC)c(OC)c(OC)c2)C1c1ccc(OC)c(OP(=O)(O)O)c1 (stereo not drawn) [Compound 17c]	> 24 h
C=CC1C(=O)N(c2cc(OC)c(OC)c(OC)c2)C1c1ccc(OC)c(O)c1 (stereo not drawn)	> 24 h

# half-life at 14.6 µg/mL (compound: C=CC1C(=O)N(c2cc(OC)c(OC)c(OC)c2)C1c1ccc(OC)c(OP(=O)(O)O)c1 (stereo not drawn) [Compound 17b] ) is > 24 h

* * *

Each entry below carries its reported viability at 72 h, 10 μM.
assay: Cytotoxicity assay in primary murine mammary epithelial cells (alamar blue); assay type: cell-based, mouse; conditions: female, CD-1, mouse, primary mammary epithelial cells, 10 μM, 25,000 cells/mL; murine epithelial cells; 72 h; read-out: % Viable cells
Numeric only. Scale: %

molecule	readoutUnit	viability at 72 h, 10 μM
C=CC1C(=O)N(c2cc(OC)c(OC)c(OC)c2)C1c1ccc(OC)c(O)c1 (centres unmarked)	%	60

Now consider the entry below.
# viability at 72 h, 10 μM (molecule: COc1ccc(/C=C\c2cc(OC)c(OC)c(OC)c2)cc1O [CA-4, Combretastatin A-4, reference compound] ) is 58

* * *

Each entry below carries its reported melting point.

Consider the following illustrative entries.
compound	melting point
C=CC1C(=O)N(c2cc(OC)c(OC)c(OC)c2)C1c1ccc2ccccc2c1 (stereo not shown) [Compound 7n]	145 to 146 °C
C=CC1C(=O)N(c2cc(OC)c(OC)c(OC)c2)C1c1ccc(F)cc1 (stereo not shown) [Compound 7a]	147 to 149 °C
C=CC1C(=O)N(c2ccccc2)C1c1cc(OC)c(OC)c(OC)c1 (stereo not shown) [Compound 8f]	150 to 151 °C

# melting point (compound: C=CC1C(=O)N(c2cc(OC)c(OC)c(OC)c2)C1c1ccc(C)cc1 (stereo not shown) [Compound 7g] ) is 106 to 107 °C

# melting point (compound: C=CC1C(=O)N(c2ccc(NC(C)=O)cc2)C1c1cc(OC)c(OC)c(OC)c1 (stereo not shown) [Compound 8j] ) is 223 to 224 °C

# melting point (compound: C=CC1C(=O)N(c2ccc(C(C)(C)C)cc2)C1c1cc(OC)c(OC)c(OC)c1 (stereo not shown) [Compound 8e] ) is 172 to 174 °C

# melting point (compound: C=CC1C(=O)N(c2cc(OC)c(OC)c(OC)c2)C1c1cccc2ccccc12 (stereo not shown) [Compound 7m] ) is 121 to 122 °C

# melting point (compound: C=CC1C(=O)N(c2cc(OC)c(OC)c(OC)c2)C1c1ccc(OCc2ccccc2)cc1 (stereo not shown) [Compound 7l] ) is 148 to 149 °C

# melting point (compound: C=CC1C(=O)N(c2cc(OC)c(OC)c(OC)c2)C1c1ccccc1 (stereo not shown) [Compound 7f] ) is 109 to 111 °C

# melting point (compound: C=CC1C(=O)N(c2ccc(Br)cc2)C1c1cc(OC)c(OC)c(OC)c1 (stereo not shown) [Compound 8c] ) is 120 to 122 °C

Data origin: paper PMC6630832
